The measurements presented in this section are drawn from patent US20110009628A1.

- assayProcedure: in vivo
- Set-up: species or system Golden Syrian hamsters
- reportedConditions: male, Golden Syrian, hamster, po, 15 mg/kg
testReadout: MRT last (h)

| molecule | endpointValue |
| --- | --- |
| COc1cc2c(cc1OC)C1Cc3ccc(OC)c(OS(=O)(=O)c4cccc(F)c4)c3CN1CC2 (single isomer, unassigned) | 6.06 |

----------
- assayProcedure: in vivo
- Set-up: species or system Golden Syrian hamsters
- reportedConditions: male, Golden Syrian, hamster, po, 30 mg/kg

| compound | Tmax, min |
| --- | --- |
| COc1cc2c(cc1OC)C1Cc3ccc(OC)c(OS(=O)(=O)c4cccc(F)c4)c3CN1CC2 (single isomer, unassigned) [Compound 162] | 30 |

----------
- Tested on: intracellular triglyceride in HepG2 cells
- assayProcedure: Reduction of intracellular triglyceride in HepG2 cells (Example 8)
- Format: cell-based, human
- reportedConditions: B, compound dose ≦40 μM
- Text: Berberine chloride was used for comparison. The amount of TG in untreated control cells was defined as 100% and the amounts of TG in compound-treated cells were divided to that value.
# Activity on reduction of cellular TG accumulation (% of control) values compiled below
testReadout: Activity on reduction of cellular TG accumulation (% of control)

| compound | endpointValue |
| --- | --- |
| CCOC(=O)COc1c(OC)ccc2c1CN1CCc3cc4c(cc3C1C2)OCO4 (centres unmarked) | 63.0 ± 0.90 % of control |
| COc1cc2c(cc1OC)C1Cc3ccc(OC)c(OS(=O)(=O)c4ccccc4)c3CN1CC2 (centres unmarked) | 71.17 ± 2.23 % of control |
| COc1ccc2c(c1OCCO)CN1CCc3cc4c(cc3C1C2)OCO4 (centres unmarked) | 53.2 ± 21.3 % of control |
| COc1ccc2cc3[n+](cc2c1OC)CCc1cc2c(cc1-3)OCO2 [Berberine, reference compound] | 70.9 ± 5.4 % of control |
| COc1cc2c(cc1OC)C1Cc3cccc(OC)c3CN1CC2 (centres unmarked) | 53.35 ± 12.68 % of control |

----------
- assayProcedure: in vivo
- Design: species or system Golden Syrian hamsters
- reportedConditions: male, Golden Syrian, hamster, po, 15 mg/kg
- Description: For testing the efficacy of Compound 141 (phosphate salt of Compound 127) or its enantiomers (Compound 162/Compound 163) the following suspension formulation procedure was developed to make 100 ml of Compound 141 in suspension at 10 mg/ml concentration in 0.1 M tartaric buffer pH. 3 containing 0.5% hydroxypropylcellulose H-type (HPC-H): Step 1: 1.50 g L-(+)-tartaric acid was dissolved in 100 mL water to prepare a tartaric acid solution. […]

| molecule | Cmax [ng/mL] |
| --- | --- |
| COc1cc2c(cc1OC)C1Cc3ccc(OC)c(OS(=O)(=O)c4cccc(F)c4)c3CN1CC2 (single isomer, unassigned) [Compound 162] | 195 |

----------
- assayProcedure: Pharmacokinetics of Compound 141 in male Wistar rats, intravenous and oral
- Assay type: in vivo
- reportedConditions: Wistar, rat, plasma; male rats, PO (10 mg/kg), mean
Where a name gives a salt, the structure may show the parent alone.

| compound | Tmax [min] |
| --- | --- |
| COc1cc2c(cc1OC)C1Cc3ccc(OC)c(OS(=O)(=O)c4cccc(F)c4)c3CN1CC2 (racemic) [Compound 141, phosphate Salt] | 19.8 |
